Experiment: Pharmacokinetic study of ribociclib in rats, alone and after rivaroxaban or apixaban (UPLC-MS/MS plasma levels)
Format: in vivo, Sprague-Dawley rats
Conditions: Sprague-Dawley, rat, plasma, po, 60 mg/kg, rats, oral RIBO 60 mg/kg alone
Measured Property: Cmax (ng/mL)
Write it as a number; the unit ng/mL goes unstated.

*Q* For the compound CN(C)C(=O)c1cc2cnc(Nc3ccc(N4CCNCC4)cn3)nc2n1C1CCCC1 , give its measured Cmax value.
*A* 1620

* * *

Assay: Pharmacokinetic study of apixaban in rats, alone and after ribociclib (UPLC-MS/MS plasma levels)
Assay type: in vivo, Sprague-Dawley rats
Settings: Sprague-Dawley, rat, plasma, po, 0.5 mg/kg, API 0.5 mg/kg after RIBO 60 mg/kg for 8 days
Description: Experimental animals were randomly divided into nine groups (n = 6, Table 1). Ribociclib was suspended in methylcellulose (MC), rivaroxaban was prepared in hydroxypropyl methylcellulose (HPMC), and apixaban was suspended in 5% DMSO in water. To achieve steady-state blood concentrations, a drug typically requires five to seven half-lives. […] Apixaban and rivaroxaban concentrations in plasma samples were determined using our previously established UPLC-MS/MS method ([Wang et al., 2023]). […]
Measured Property: Cmax
Answers without a unit are incomplete; give the number and then its unit.

*Q* Name the recorded Cmax of the item COc1ccc(-n2nc(C(N)=O)c3c2C(=O)N(c2ccc(N4CCCCC4=O)cc2)CC3)cc1 in your answer.
*A* 156 ng/mL

* * *

Assay: Pharmacokinetic study of rivaroxaban in rats, alone and with ribociclib (UPLC-MS/MS plasma levels)
Assay type: in vivo, Sprague-Dawley rats
Conditions: Sprague-Dawley, rat, plasma, po, 1 mg/kg, RIVA 1 mg/kg + RIBO 60 mg/kg for 8 days, read-out: CLz/F (converted)
Measured Property: CL/F (mL/min/kg)
Give your result in mL/min/kg as a bare value.

*Q* Specify CL/F for O=C(NC[C@H]1CN(c2ccc(N3CCOCC3=O)cc2)C(=O)O1)c1ccc(Cl)s1 [RIVA, rivaroxaban] and stop.
*A* 7.5

* * *

Assay: Pharmacokinetic study of apixaban in rats, alone and after ribociclib (UPLC-MS/MS plasma levels)
Format: in vivo, Sprague-Dawley rats
Conditions: Sprague-Dawley, rat, plasma, po, 0.5 mg/kg, API 0.5 mg/kg after RIBO 60 mg/kg for 8 days
Measured Property: half-life (h)
Report the figure in h without appending any unit label.

*Q* Return half-life (reported value) for this molecule: COc1ccc(-n2nc(C(N)=O)c3c2C(=O)N(c2ccc(N4CCCCC4=O)cc2)CC3)cc1
*A* 5.16

* * *

Test: Pharmacokinetic study of rivaroxaban in rats, alone and with ribociclib (UPLC-MS/MS plasma levels)
Assay type: in vivo, Sprague-Dawley rats
Conditions: Sprague-Dawley, rat, plasma, po, 2 mg/kg, RIVA 2 mg/kg + RIBO 60 mg/kg for 8 days
Experimental: Experimental animals were randomly divided into nine groups (n = 6, Table 1). Ribociclib was suspended in methylcellulose (MC), rivaroxaban was prepared in hydroxypropyl methylcellulose (HPMC), and apixaban was suspended in 5% DMSO in water. To achieve steady-state blood concentrations, a drug typically requires five to seven half-lives. […] Apixaban and rivaroxaban concentrations in plasma samples were determined using our previously established UPLC-MS/MS method ([Wang et al., 2023]). […]
Measured Property: Tmax (h)
Lab book: enter the figure in h, no units written.

*Q* Fill in reported Tmax for this entry: O=C(NC[C@H]1CN(c2ccc(N3CCOCC3=O)cc2)C(=O)O1)c1ccc(Cl)s1
*A* 2.83

* * *

Assay: Pharmacokinetic study of rivaroxaban in rats, alone and with ribociclib (UPLC-MS/MS plasma levels)
Assay type: in vivo, Sprague-Dawley rats
Conditions: Sprague-Dawley, rat, plasma, po, 2 mg/kg, RIVA 2 mg/kg + RIBO 60 mg/kg for 8 days
Measured Property: AUC(0-inf)
Report field: quantity (unit follows the number).

*Q* Look up and state reported AUC(0-inf) for O=C(NC[C@H]1CN(c2ccc(N3CCOCC3=O)cc2)C(=O)O1)c1ccc(Cl)s1
*A* 4270 ng·h/mL

* * *

Test: Pharmacokinetic study of ribociclib in rats, alone and after rivaroxaban or apixaban (UPLC-MS/MS plasma levels)
Assay type: in vivo, Sprague-Dawley rats
Details: Sprague-Dawley, rat, plasma, po, 60 mg/kg, rats, RIBO 60 mg/kg after API 0.5 mg/kg for 5 days
Procedure: Experimental animals were randomly divided into nine groups (n = 6, Table 1). Ribociclib was suspended in methylcellulose (MC), rivaroxaban was prepared in hydroxypropyl methylcellulose (HPMC), and apixaban was suspended in 5% DMSO in water. To achieve steady-state blood concentrations, a drug typically requires five to seven half-lives. […] Apixaban and rivaroxaban concentrations in plasma samples were determined using our previously established UPLC-MS/MS method ([Wang et al., 2023]). […]
Measured Property: half-life (h)
Respond numerically; units are h and should not be typed.

*Q* Indicate the recorded half-life value for this compound: CN(C)C(=O)c1cc2cnc(Nc3ccc(N4CCNCC4)cn3)nc2n1C1CCCC1
*A* 8.25

* * *

Assay: Pharmacokinetic study of apixaban in rats, alone and after ribociclib (UPLC-MS/MS plasma levels)
Assay type: in vivo, Sprague-Dawley rats
Details: Sprague-Dawley, rat, plasma, po, 0.5 mg/kg, API 0.5 mg/kg after RIBO 60 mg/kg for 8 days, read-out: MRT0- ∞
Measured Property: MRT inf (h)
# output: bare number, implied unit h

*Q* Identify MRT inf associated with the compound COc1ccc(-n2nc(C(N)=O)c3c2C(=O)N(c2ccc(N4CCCCC4=O)cc2)CC3)cc1 [API, apixaban]
*A* 4.81

* * *

Test: Pharmacokinetic study of ribociclib in rats, alone and after rivaroxaban or apixaban (UPLC-MS/MS plasma levels)
Assay type: in vivo, Sprague-Dawley rats
Details: Sprague-Dawley, rat, plasma, po, 60 mg/kg, rats, oral RIBO 60 mg/kg alone
Measured Property: Tmax (h)
Numbers only; they are read as h.

*Q* Please report Tmax for the following molecule: CN(C)C(=O)c1cc2cnc(Nc3ccc(N4CCNCC4)cn3)nc2n1C1CCCC1 [RIBO, ribociclib]
*A* 2.4

* * *

Experiment: Pharmacokinetic study of apixaban in rats, alone and after ribociclib (UPLC-MS/MS plasma levels)
Type: in vivo, Sprague-Dawley rats
Conditions: Sprague-Dawley, rat, plasma, po, 0.5 mg/kg, oral API 0.5 mg/kg alone, read-out: MRT0-t
Measured Property: MRT last
Please append the unit to your numeric answer.

*Q* Read off the recorded MRT last for COc1ccc(-n2nc(C(N)=O)c3c2C(=O)N(c2ccc(N4CCCCC4=O)cc2)CC3)cc1
*A* 2.63 h

* * *

Test: Pharmacokinetic study of apixaban in rats, alone and after ribociclib (UPLC-MS/MS plasma levels)
Format: in vivo, Sprague-Dawley rats
Conditions: Sprague-Dawley, rat, plasma, po, 0.5 mg/kg, API 0.5 mg/kg after RIBO 60 mg/kg for 8 days
Measured Property: AUC(0-inf) (ng·h/mL)
Number in ng·h/mL, nothing else.

*Q* Consider the compound COc1ccc(-n2nc(C(N)=O)c3c2C(=O)N(c2ccc(N4CCCCC4=O)cc2)CC3)cc1 and give its recorded AUC(0-inf).
*A* 675

* * *

Assay: Pharmacokinetic study of ribociclib in rats, alone and after rivaroxaban or apixaban (UPLC-MS/MS plasma levels)
Type: in vivo, Sprague-Dawley rats
Conditions: Sprague-Dawley, rat, plasma, po, 60 mg/kg, rats, oral RIBO 60 mg/kg alone
Measured Property: AUC(0-inf) (ng·h/mL)
// units = ng·h/mL; emit number, no label

*Q* Report AUC(0-inf), nothing else, for this compound: CN(C)C(=O)c1cc2cnc(Nc3ccc(N4CCNCC4)cn3)nc2n1C1CCCC1
*A* 20800

* * *

Experiment: Pharmacokinetic study of rivaroxaban in rats, alone and with ribociclib (UPLC-MS/MS plasma levels)
Format: in vivo, Sprague-Dawley rats
Settings: Sprague-Dawley, rat, plasma, po, 2 mg/kg, oral RIVA 2 mg/kg alone
Measured Property: Tmax
Remember to follow the number with its unit.

*Q* Identify measured Tmax corresponding to O=C(NC[C@H]1CN(c2ccc(N3CCOCC3=O)cc2)C(=O)O1)c1ccc(Cl)s1 [RIVA, rivaroxaban]
*A* 2.13 h

* * *

Test: Pharmacokinetic study of ribociclib in rats, alone and after rivaroxaban or apixaban (UPLC-MS/MS plasma levels)
Format: in vivo, Sprague-Dawley rats
Conditions: Sprague-Dawley, rat, plasma, po, 60 mg/kg, rats, RIBO 60 mg/kg after RIVA 2 mg/kg for 5 days
Measured Property: AUC(0-t) (ng·h/mL)
Entry rule: numbers only, all in ng·h/mL.

*Q* Name the recorded AUC(0-t) of the compound listed here: CN(C)C(=O)c1cc2cnc(Nc3ccc(N4CCNCC4)cn3)nc2n1C1CCCC1
*A* 21400

* * *

Experiment: Pharmacokinetic study of ribociclib in rats, alone and after rivaroxaban or apixaban (UPLC-MS/MS plasma levels)
Type: in vivo, Sprague-Dawley rats
Conditions: Sprague-Dawley, rat, plasma, po, 60 mg/kg, rats, RIBO 60 mg/kg after RIVA 2 mg/kg for 5 days
Measured Property: AUC(0-inf) (ng·h/mL)
Lab book: enter the figure in ng·h/mL, no units written.

*Q* Report AUC(0-inf) for CN(C)C(=O)c1cc2cnc(Nc3ccc(N4CCNCC4)cn3)nc2n1C1CCCC1
*A* 21500
